Below, each entry is listed alongside its reported IC50.
Biological target: HIS-TGFβR1 T204D (Homo sapiens, UniProt P36897, T204D)
Sequence (P36897 34-503 T204D): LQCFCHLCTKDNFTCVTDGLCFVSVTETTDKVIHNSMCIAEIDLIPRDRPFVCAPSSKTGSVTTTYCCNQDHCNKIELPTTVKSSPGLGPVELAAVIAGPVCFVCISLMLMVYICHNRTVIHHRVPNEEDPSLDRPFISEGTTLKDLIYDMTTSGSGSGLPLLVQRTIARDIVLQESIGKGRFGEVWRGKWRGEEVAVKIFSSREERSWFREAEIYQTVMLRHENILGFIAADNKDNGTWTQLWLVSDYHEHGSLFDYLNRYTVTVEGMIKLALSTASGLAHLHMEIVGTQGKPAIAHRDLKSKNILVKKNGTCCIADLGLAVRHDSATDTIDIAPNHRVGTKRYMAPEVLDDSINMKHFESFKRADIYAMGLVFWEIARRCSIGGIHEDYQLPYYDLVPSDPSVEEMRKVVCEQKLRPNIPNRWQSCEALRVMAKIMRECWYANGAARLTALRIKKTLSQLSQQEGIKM
Test: HTRF probe-displacement assay, HIS-TGFβR1 T204D
Format: binding
Details: read-out: TGFβR1 (μM) IC50

structure as smiles | IC50
CCOc1ccc(-c2c(-c3ccnc(NC(C)=O)c3)[nH]c3cc(Cl)cnc23)cn1 | 0.002 µM
CC(=O)Nc1cc(-c2[nH]c3c(CN(C)C)ccnc3c2-c2cccc(C(F)F)n2)ccn1 | 0.003 µM
COc1ccc(-c2c(-c3ccnc(NC(C)=O)c3)[nH]c3c(C(C)=O)ccnc23)cn1 | 0.008 µM
COc1ccc(-c2c(-c3ccnc(NC(C)=O)c3)[nH]c3cccnc23)nc1C | 0.111 µM
COC(=O)Nc1cc(-c2[nH]c3cc(Cl)cnc3c2-c2ccc(OC)cn2)ccn1 | 0.002 µM

====

Below, each entry is listed alongside its reported IC50.
Molecular target: HIS-TGFβR1 T204D (Homo sapiens, UniProt P36897, T204D)
Experiment: HTRF probe-displacement assay, HIS-TGFβR1 T204D
Type: binding
Settings: read-out: TGFβR1 (μM) IC50
value kind: IC50 (µM)

compound | unit info | assay result
CC(=O)Nc1cc(-c2[nH]c3c(CN4CCOCC4)ccnc3c2-c2cccc(C(F)F)n2)ccn1 | µM | 0.001
CC(=O)Nc1cc(-c2[nH]c3cccnc3c2-c2ccc3cnccc3c2)ccn1 | µM | 0.014
[2H]C([2H])([2H])Oc1ccc(-c2c(-c3ccnc(NC(C)=O)c3)[nH]c3cc(OC)cnc23)nc1 | µM | 0.001
CCC(O)c1ccnc2c(-c3ccc(OC)nc3)c(-c3ccnc(NC(C)=O)c3)[nH]c12 (centres unmarked) | µM | 0.001
CC(=O)Nc1cc(-c2[nH]c3c(C)ccnc3c2-c2csc(C)n2)ccn1 | µM | 0.0037

====

Below, each entry is listed alongside its reported IC50.
Target: HIS-TGFβR2 WT (Homo sapiens)
Sequence (P37173 23-567): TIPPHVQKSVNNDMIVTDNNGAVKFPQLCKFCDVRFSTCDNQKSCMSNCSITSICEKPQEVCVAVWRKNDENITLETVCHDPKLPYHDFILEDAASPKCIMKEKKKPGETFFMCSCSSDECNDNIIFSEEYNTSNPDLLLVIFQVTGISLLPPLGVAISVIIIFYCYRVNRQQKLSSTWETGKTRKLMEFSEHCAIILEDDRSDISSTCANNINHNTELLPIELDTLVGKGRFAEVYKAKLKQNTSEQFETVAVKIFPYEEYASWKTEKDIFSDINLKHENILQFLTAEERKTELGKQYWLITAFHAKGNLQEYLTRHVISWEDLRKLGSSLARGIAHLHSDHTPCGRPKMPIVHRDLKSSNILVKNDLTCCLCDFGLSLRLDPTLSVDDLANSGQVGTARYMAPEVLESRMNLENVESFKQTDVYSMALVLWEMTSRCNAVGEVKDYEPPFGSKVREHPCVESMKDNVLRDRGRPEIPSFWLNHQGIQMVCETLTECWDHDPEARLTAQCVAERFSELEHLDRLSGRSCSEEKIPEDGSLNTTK
Assay: HTRF probe-displacement assay, HIS-TGFβR2 WT
Type: binding

structure as smiles | tested system | IC50
CC(=O)Nc1cc(-c2[nH]c3c(OCCN4CCCC4)ccnc3c2-c2cccc(C(F)F)n2)ccn1 | HIS-TGFβR2 WT (Homo sapiens) | > 15 µM
CCNc1cc(-c2[nH]c3cc(Cl)cnc3c2-c2ccc(OC)cn2)ccn1 | HIS-TGFβR2 WT (Homo sapiens) | ≥ 15 µM
COc1ccc(-c2c(-c3ccnc(NC(C)=O)c3)[nH]c3c(Cl)ccnc23)nc1 | HIS-TGFβR2 WT (Homo sapiens) | > 15 µM
